# reported Adhesion; entries follow
tested_system: Integrin alpha-4/beta-1 (Homo sapiens) (UniProt P05556+P13612)
assay_summary: In vitro inhibition of Jurkat cell (alpha4-beta1) cell adhesion to vascular cell adhesion molecule-1.
Assay type: functional, cell-based
measured_attribute: Adhesion (%)

>>> val("CC[C@H](C)[C@@H]1NC(=O)[C@@H](CCC(N)=O)NC(=O)[C@H](N)CSSC[C@H](C(=O)O)NC(=O)[C@H]2CCCN2C(=O)[C@H](CO)NC(=O)[C@@H](CC(=O)O)NC1=O")
52
>>> val("COC1C(CC(C)C)O[C@@H](OCC(=O)O)C(OCc2ccccc2)[C@H]1OC (stereo partly specified)")
100
>>> val("COC1C(CCC(C)C)O[C@@H](OCC(=O)O)[C@H](OCc2ccccc2)[C@H]1OC (stereo partly specified)")
97
>>> val("CO[C@]12CCCC[C@@]1(OC)OC1[C@H](COCC(C)C)O[C@@H](OCC(=O)O)[C@H](OCc3ccccc3)[C@H]1O2 (stereo in doubt; form 2)")
77
>>> val("COC1C(COCC(C)C)O[C@@H](OCC(=O)O)[C@H](OCc2ccccc2)[C@H]1OC (stereo partly specified)")
100
>>> val("COC12CCCC[C@]1(OC)O[C@H]1C(O2)C(COC(C)C)O[C@@H](OCC(=O)O)[C@@H]1OCc1ccccc1 (stereo in doubt; form 1)")
100
>>> val("COC1C(COC(C)C)O[C@@H](OCC(=O)O)[C@H](OCc2ccccc2)[C@H]1OC (stereo partly specified)")
92
>>> val("COC1C(CC(C)C)O[C@@H](OCC(=O)O)[C@H](OCc2ccccc2)[C@H]1OC (stereo partly specified)")
100
>>> val("COC12CCCC[C@]1(OC)O[C@H]1C(O2)C(COC(C)C)O[C@@H](OCC(=O)O)[C@@H]1OCc1ccccc1 (stereo in doubt; form 2)")
100
>>> val("COC1C(COCC(C)C)O[C@@H](OCC(=O)O)[C@H](OCCO)[C@H]1OC (stereo partly specified)")
100
>>> val("COC1C(COC(C)C)O[C@@H](OCC(=O)O)C(OCCO)[C@H]1OC (stereo partly specified)")
100
